Field: hERG current change (%, negative = inhibition) at 10uM. Provide a value for each of the compounds that follow.
- assayTarget: human ether-à-go-go-related gene (hERG) potassium channel (human, UniProt Q12809);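 further: peak tail current of the secondary pulse compared with the same well before compound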
- Sequence (Q12809 whole entry, looked up): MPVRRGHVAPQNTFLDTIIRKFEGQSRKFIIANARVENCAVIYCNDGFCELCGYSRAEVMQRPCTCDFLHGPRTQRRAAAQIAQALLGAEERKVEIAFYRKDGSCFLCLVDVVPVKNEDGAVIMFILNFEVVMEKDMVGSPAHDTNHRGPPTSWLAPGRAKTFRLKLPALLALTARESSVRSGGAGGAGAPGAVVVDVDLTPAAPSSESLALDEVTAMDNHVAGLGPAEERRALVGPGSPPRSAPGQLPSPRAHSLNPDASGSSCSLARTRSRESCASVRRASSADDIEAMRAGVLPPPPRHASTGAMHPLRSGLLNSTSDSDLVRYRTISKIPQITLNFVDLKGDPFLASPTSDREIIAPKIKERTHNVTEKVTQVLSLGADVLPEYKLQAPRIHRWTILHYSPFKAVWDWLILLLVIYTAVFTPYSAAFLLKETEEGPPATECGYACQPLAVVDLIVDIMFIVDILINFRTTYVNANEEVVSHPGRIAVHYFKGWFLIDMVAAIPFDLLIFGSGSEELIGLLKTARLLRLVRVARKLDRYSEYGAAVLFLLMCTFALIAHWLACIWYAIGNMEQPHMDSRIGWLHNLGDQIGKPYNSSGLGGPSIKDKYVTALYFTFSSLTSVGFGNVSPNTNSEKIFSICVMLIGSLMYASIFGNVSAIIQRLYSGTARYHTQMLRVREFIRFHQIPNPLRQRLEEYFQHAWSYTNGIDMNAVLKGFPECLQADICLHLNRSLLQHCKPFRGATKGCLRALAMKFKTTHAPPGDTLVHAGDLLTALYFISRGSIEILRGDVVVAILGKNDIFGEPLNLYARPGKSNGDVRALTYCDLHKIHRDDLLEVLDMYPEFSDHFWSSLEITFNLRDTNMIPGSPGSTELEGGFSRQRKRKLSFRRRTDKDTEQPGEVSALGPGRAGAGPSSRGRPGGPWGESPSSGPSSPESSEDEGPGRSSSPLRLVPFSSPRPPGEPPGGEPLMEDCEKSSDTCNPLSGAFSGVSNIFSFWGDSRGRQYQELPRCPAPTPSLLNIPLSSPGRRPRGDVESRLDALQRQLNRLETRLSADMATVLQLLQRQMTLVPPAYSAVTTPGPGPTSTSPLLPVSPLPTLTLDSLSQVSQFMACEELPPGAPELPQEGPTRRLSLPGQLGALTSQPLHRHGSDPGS
- experimentSummary: primary screen, population patch clamp on CHO cells stably expressing hERG; higher = less effect of the substance
Among all 310,000 compounds or so, about 14,000 (4.5%) showed an effect of 50% or more. The effect is printed as a negative number. The sample holds strong results, similar compounds and a random draw of the others, so the mix is not that of the screen.
Answers are plain numbers, in %.

Use the examples below as a reference point.
| compound | observed |
| --- | --- |
| COc1cccc(CNC(=O)C2CCCN(c3cnccn3)C2)c1 (stereo not shown) | -14.4 |
| C/C=C(\C)CN1CCC(Oc2cccc(C(=O)NCc3ccccn3)c2)CC1 | -4.59 |
| COc1ccc2oc(=O)c(C(=O)N3CCCc4ccccc43)cc2c1 | -63.1 |
| COc1ccc(CCn2c(N)c(C#N)c3nc4ccccc4nc32)cc1OC | 4.14 |
| O=C(NCC1CCCO1)c1cnn2c(C(F)F)cc(C3CC3)nc12 (stereo not shown) | -2.7 |

Record hERG current change (%, negative = inhibition) at 10uM per entry; entries follow.
1. CCc1nnc(NC(=O)CSc2nnnn2-c2cccc(C(=O)OC)c2)s1
2. Cc1cnn(-c2cc(N/N=C/c3ccc(F)cc3)ncn2)c1

[A]
8.39
5.69

Numbers sourced from paper PMC4336329.
